assay: Inhibition constant(Ki) for inhibition of PPIase activity of Legionella pneumophilia FK506 binding protein 25 (Conc=40 nM) of FKBPs family
readout name: Ki (µM)
One number for each entry, in µM.

Q: Requested field: Ki. Item: C[C@@H]1C[C@@H]([C@H](O)CC2CC(=O)NC(=O)C2)C(=O)[C@@H](C)C1 [Cycloheximid]
Result: 124
